Assay: NCI Yeast Anticancer Drug Screen. Data for the cln2 rad14 strain (AID 165);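 note: 0% = growth equal to vehicle treated cultures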
Conditions: S. cerevisiae cln2 rad14 strain, at 50.0 µM (retest, dose inferred, filed as 5.0), active compounds read high
Compounds without any hit were thinned out: in the full panel of roughly 79,000, 15% have a hit.
experimental-endpoint: growth inhibition (%)
// return numeric value only (unit: %, not printed)

[Q] Reported growth inhibition for `O=C1NN(C2=NNC3(C(=O)N2)c2ccccc2-c2ccccc23)C(c2ccccc2)=N/C1=C/c1ccc(Cl)cc1` : what is it?
[A] 3

[Q] Field request: growth inhibition | item: `COc1ccc2c(c1)Cc1ccccc1C2=O`
[A] 3

[Q] Item under review: `O=C(c1cccs1)N(C(=S)N1CCN(c2ccccn2)CC1)c1ccccc1` . Reported growth inhibition?
[A] 10

[Q] Entry `COc1ccc(/C(Cl)=C(/c2ccc(O)cc2)c2ccc(OCCN(C)C)cc2)cc1` : reported growth inhibition = ?
[A] 34

[Q] For the compound shown here, `COc1ccc2c(c1)nc1ccc(Cl)cc1[n+]2C` , give the reported growth inhibition.
[A] 52

Data origin, for the record: PubChem BioAssay (NCI)
